Organism: Homo sapiens
test name: Selectivity ratio of Ki for human dopamine D2L receptor to Ki for human 5-HT7 receptor
Catalogue of compounds with associated Ratio Ki
// print number alone

Answered cases to consult:
INSERT INTO assay_data (compound, data_value) VALUES
  ('Cc1ccc(N2CCN(CC(O)CN3C(=O)NC(C)(c4ccc(F)cc4)C3=O)CC2)cc1C (centres undefined)', 13),
  ('CC1(c2ccc(F)cc2)NC(=O)N(CC(O)CN2CCN(c3ccccc3F)CC2)C1=O (centres undefined)', 7),
  ('CC1(c2ccc(F)cc2)NC(=O)N(CC(O)CN2CCN(C(c3ccccc3)c3ccccc3)CC2)C1=O (centres undefined)', 3),
  ('Cc1ccc(C)c(N2CCN(CC(O)CN3C(=O)NC(C)(c4ccc(F)cc4)C3=O)CC2)c1 (centres undefined)', 32),
  ('CC1(c2ccc(F)cc2)NC(=O)N(CC(O)CN2CCN(c3ccccc3)CC2)C1=O (centres undefined)', 13);

Lookup: // lookup Ratio Ki for CC1(c2ccc(F)cc2)NC(=O)N(CC(O)CN2CCN(c3ccc(F)cc3F)CC2)C1=O (centres undefined)
Found: 4

Lookup: // lookup Ratio Ki for CCOc1ccccc1N1CCN(CC(O)CN2C(=O)NC(C)(c3ccc(F)cc3)C2=O)CC1 (centres undefined)
Found: 13

Lookup: // lookup Ratio Ki for CC1(c2ccc(F)cc2)NC(=O)N(CC(O)CN2CCN(c3ccccc3Cl)CC2)C1=O (centres undefined)
Found: 18

Lookup: // lookup Ratio Ki for CC1(c2ccc(F)cc2)NC(=O)N(CC(O)CN2CCN(c3cccc(Cl)c3Cl)CC2)C1=O (centres undefined)
Found: 18

Lookup: // lookup Ratio Ki for CC1(c2ccc(F)cc2)NC(=O)N(CC(O)CN2CCN(c3ccc(Cl)cc3)CC2)C1=O (centres undefined)
Found: 5

Lookup: // lookup Ratio Ki for COc1cccc(N2CCN(CC(O)CN3C(=O)NC(C)(c4ccc(F)cc4)C3=O)CC2)c1 (centres undefined)
Found: 58

Lookup: // lookup Ratio Ki for CC1(c2ccc(F)cc2)NC(=O)N(CC(O)CN2CCN(c3ccccc3C#N)CC2)C1=O (centres undefined)
Found: 67

Lookup: // lookup Ratio Ki for CC1(c2ccc(F)cc2)NC(=O)N(CC(O)CN2CCN(c3ccc(Cl)c(Cl)c3)CC2)C1=O (centres undefined)
Found: 14

Lookup: // lookup Ratio Ki for CC1(c2ccc(F)cc2)NC(=O)N(CC(O)CN2CCN(c3ccc(F)cc3)CC2)C1=O (centres undefined)
Found: 7
